Molecular target: SMARCA2 (Homo sapiens)
Sequence (P51531 whole entry): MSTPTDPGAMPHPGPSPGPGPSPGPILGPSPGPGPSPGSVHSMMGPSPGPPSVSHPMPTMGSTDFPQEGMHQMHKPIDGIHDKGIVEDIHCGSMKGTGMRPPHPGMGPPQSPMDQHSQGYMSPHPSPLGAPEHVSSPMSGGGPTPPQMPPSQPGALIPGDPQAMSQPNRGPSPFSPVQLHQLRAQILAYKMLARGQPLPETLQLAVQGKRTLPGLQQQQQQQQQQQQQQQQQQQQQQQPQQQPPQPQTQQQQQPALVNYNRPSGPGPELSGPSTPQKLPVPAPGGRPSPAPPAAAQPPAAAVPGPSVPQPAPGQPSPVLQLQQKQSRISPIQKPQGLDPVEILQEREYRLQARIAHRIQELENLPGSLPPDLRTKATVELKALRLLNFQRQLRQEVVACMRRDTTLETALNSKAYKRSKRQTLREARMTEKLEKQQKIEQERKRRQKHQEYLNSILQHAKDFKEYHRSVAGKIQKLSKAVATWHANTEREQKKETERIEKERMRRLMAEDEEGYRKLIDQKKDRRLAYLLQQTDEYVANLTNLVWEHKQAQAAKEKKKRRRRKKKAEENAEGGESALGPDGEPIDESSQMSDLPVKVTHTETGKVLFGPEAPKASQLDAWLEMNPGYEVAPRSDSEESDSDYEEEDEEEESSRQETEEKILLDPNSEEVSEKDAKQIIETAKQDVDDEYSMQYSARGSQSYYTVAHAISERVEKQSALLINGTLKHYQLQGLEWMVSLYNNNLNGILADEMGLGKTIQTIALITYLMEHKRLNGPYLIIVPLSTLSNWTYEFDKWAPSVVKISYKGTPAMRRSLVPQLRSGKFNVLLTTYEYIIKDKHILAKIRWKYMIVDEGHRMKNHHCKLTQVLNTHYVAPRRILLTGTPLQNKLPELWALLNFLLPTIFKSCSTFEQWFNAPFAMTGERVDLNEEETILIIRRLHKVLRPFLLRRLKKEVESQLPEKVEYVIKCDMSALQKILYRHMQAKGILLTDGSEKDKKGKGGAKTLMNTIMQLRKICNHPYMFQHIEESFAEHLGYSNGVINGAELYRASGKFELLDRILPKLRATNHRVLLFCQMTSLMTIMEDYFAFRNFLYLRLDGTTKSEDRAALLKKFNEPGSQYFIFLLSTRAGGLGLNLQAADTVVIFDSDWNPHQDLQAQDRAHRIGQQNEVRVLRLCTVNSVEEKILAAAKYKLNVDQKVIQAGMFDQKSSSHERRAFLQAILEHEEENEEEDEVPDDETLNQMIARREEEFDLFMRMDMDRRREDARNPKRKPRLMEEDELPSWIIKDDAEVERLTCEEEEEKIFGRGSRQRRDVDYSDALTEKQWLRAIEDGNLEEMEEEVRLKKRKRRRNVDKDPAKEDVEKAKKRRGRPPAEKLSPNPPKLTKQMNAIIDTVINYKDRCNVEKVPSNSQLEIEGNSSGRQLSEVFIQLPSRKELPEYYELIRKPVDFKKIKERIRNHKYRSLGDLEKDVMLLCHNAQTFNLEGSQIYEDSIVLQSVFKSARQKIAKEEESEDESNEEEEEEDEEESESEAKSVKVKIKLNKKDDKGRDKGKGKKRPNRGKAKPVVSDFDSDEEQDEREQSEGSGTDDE
Test: MSD SMARCA2 degradation in A549 cell line
Assay type: cell-based
Details: A549, A549 cells, 24 h
result_type: Dmax

[
  {
    "compound": "Cc1ncsc1-c1ccc(CNC(=O)[C@@H]2C[C@@H](O)CN2C(=O)[C@@H](NC(=O)C2CC3(CCN(Cc4cnc(N5C6CCC5CN(c5cc(-c7ccccc7O)nnc5N)C6)nc4)CC3)C2)C(C)(C)C)cc1",
    "assayed_system": "SMARCA2 (Homo sapiens)",
    "recorded_value": "> 90%"
  },
  {
    "compound": "Nc1nnc(-c2ccccc2O)cc1-c1cnn(C2CCN(C3CCC(Nc4ccc5c(c4)C(=O)N(C4CCC(=O)NC4=O)C5=O)CC3)CC2)c1 (centres unmarked)",
    "assayed_system": "SMARCA2 (Homo sapiens)",
    "recorded_value": "> 90%"
  },
  {
    "compound": "Cc1ncsc1-c1ccc(CNC(=O)[C@@H]2C[C@@H](O)CN2C(=O)[C@@H](NC(=O)[C@H]2CC3(C2)C[C@H](c2cnc(N4C5CCC4CN(c4cc(-c6ccccc6O)nnc4N)C5)nc2)C3)C(C)(C)C)c(C(F)(F)F)c1 (some centres unmarked)",
    "assayed_system": "SMARCA2 (Homo sapiens)",
    "recorded_value": "> 90%"
  },
  {
    "compound": "Cc1ncsc1-c1ccc(CNC(=O)[C@@H]2C[C@@H](O)CN2C(=O)[C@@H](NC(=O)[C@H]2CC[C@H](c3cnc(N4C5CCC4CN(c4cc(-c6ccccc6O)nnc4N)C5)nc3)CC2)C(C)(C)C)c(C(=O)N(C)C)c1",
    "assayed_system": "SMARCA2 (Homo sapiens)",
    "recorded_value": "> 90%"
  },
  {
    "compound": "Cc1cc(-c2scnc2C)ccc1CNC(=O)[C@@H]1C[C@@H](O)CN1C(=O)[C@@H](NC(=O)CN1CCC(c2cnc(N3C4CCC3CN(c3cc(-c5ccccc5O)nnc3N)C4)nc2)CC1)C(C)(C)C",
    "assayed_system": "SMARCA2 (Homo sapiens)",
    "recorded_value": "> 90%"
  },
  {
    "compound": "Cc1ncsc1-c1ccc(CNC(=O)[C@@H]2C[C@@H](O)CN2C(=O)[C@@H](NC(=O)[C@H]2CC[C@@H](Cc3cnc(N4C5CCC4CN(c4cc(-c6ccccc6O)nnc4N)C5)nc3)CC2)C(C)(C)C)c(C(F)(F)F)c1",
    "assayed_system": "SMARCA2 (Homo sapiens)",
    "recorded_value": "70 to 90%"
  },
  {
    "compound": "Cc1ncsc1-c1ccc(CNC(=O)[C@@H]2C[C@@H](O)CN2C(=O)[C@@H](NC(=O)CN(C)Cc2ccc(N3CCN(c4cc(-c5ccccc5O)nnc4N)CC3)cc2)C(C)(C)C)cc1",
    "assayed_system": "SMARCA2 (Homo sapiens)",
    "recorded_value": "70 to 90%"
  },
  {
    "compound": "Cc1ncsc1-c1ccc(CNC(=O)[C@@H]2C[C@@H](O)CN2C(=O)[C@@H](NC(=O)CC2CC(N3CCC(c4cnc(N5C6CCC5CN(c5cc(-c7ccccc7O)nnc5N)C6)nc4)CC3)C2)C(C)(C)C)cc1 (some centres unmarked)",
    "assayed_system": "SMARCA2 (Homo sapiens)",
    "recorded_value": "70 to 90%"
  }
]

Every entry's value here was drawn from patent US12624044B2.
